- Tested on: NOMO-1 cells
- Assay Explanation: Growth assay (CellTiter-Glo), NOMO-1
- Format: cell-based
- Cond: Homo sapiens, NOMO-1, 72 h; acute myeloid leukemia; BRAF WT, KRAS-G13D; 3 days
pIC50: −log10 of the molar value.
Measure Name: pIC50

{"Smiles Data": "O=C(c1c(F)ccc(NS(=O)(=O)N2CC[C@@H](F)C2)c1F)c1c[nH]c2ncc(-c3cnc(C4CC4)nc3)cc12", "Measurement Target": "NOMO-1 cells", "Result": "< 5.00"}

###

- Measurement Target: BRAF_V600G (Homo sapiens, UniProt P15056, V600G)
- Sequence (P15056 432-726 V600G): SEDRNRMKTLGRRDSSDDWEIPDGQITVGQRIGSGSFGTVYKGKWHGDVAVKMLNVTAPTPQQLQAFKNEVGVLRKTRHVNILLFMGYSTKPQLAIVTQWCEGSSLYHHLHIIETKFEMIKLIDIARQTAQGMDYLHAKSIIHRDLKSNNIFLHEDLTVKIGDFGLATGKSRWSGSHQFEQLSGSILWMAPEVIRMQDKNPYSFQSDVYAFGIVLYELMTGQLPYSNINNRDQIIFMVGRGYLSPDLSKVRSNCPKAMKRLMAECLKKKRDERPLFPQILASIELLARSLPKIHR
- Assay Explanation: RAF kinase biochemical assay, BRAF V600G
- Cond: Table 3; ATP 100 μM
- Description: BRAF proteins were produced in insect cells at Plexxikon Inc. as N-terminally His-tagged fragments encompassing the kinase domain. 1) Test compounds in DMSO were serially diluted and plated into 384-well assay plates at 1 μL/well. 2) Added were 15 μL/well of RAF enzyme and biotinylated-MEK1 substrate in kinase buffer. […] 5) After a brief spin down, the plate was incubated at about room temperature for 40-50 minutes. […] 8) The plate was read on the Envision multilabel plate reader (Perkin Elmer). […]
pIC50: −log10 of the molar value.

{"Smiles Data": "O=C(c1c(F)ccc(NS(=O)(=O)N2CC[C@@H](F)C2)c1F)c1c[nH]c2ncc(-c3cnc(C4CC4)nc3)cc12", "pIC50": 8.20}

###

- Test system: pERK in A375 cells (BRAF^V600E, homozygous)
- Assay Explanation: Phospho-ERK AlphaScreen assay, pERK inhibition in A375
- Format: cell-based
- Cond: Homo sapiens, A-375, 1 h, read-out: pERK inhibition IC50 A375
Listed next: entries and their corresponding IC50.

{"Compound": "CC(C)(C)c1nc(-c2cccc(NS(=O)(=O)c3c(F)cccc3F)c2F)c(-c2ccnc(N)n2)s1 [Dabrafenib, dabrafenib]", "IC50": "1 nM"}
{"Compound": "CNC(=O)c1cc(Oc2ccc(NC(=O)Nc3ccc(Cl)c(C(F)(F)F)c3)cc2)ccn1 [Sorafenib, sorafenib]", "IC50": "4400 nM"}
{"Compound": "O=C(c1c(F)ccc(NS(=O)(=O)N2CC[C@@H](F)C2)c1F)c1c[nH]c2ncc(-c3cnc(C4CC4)nc3)cc12 [Formula I]", "IC50": "16 nM"}

###

- Test system: A375 cells
- Assay Explanation: Growth inhibition assay (CellTiter-Glo), A375
- Type: cell-based
- Cond: Homo sapiens, A-375, 72 h; Table 4; melanoma; BRAF V600E, RAS WT; 3 days; read-out: Growth IC50 A375
pIC50: −log10 of the molar value.
Measure Name: pIC50

{"Compound": "O=C(c1c(F)ccc(NS(=O)(=O)N2CC[C@@H](F)C2)c1F)c1c[nH]c2ncc(-c3cnc(C4CC4)nc3)cc12 [Formula I]", "Readout Number": 7.30}

###

- Measurement Target: BRAF_V600M (Homo sapiens, UniProt P15056, V600M)
- Sequence (P15056 432-726 V600M): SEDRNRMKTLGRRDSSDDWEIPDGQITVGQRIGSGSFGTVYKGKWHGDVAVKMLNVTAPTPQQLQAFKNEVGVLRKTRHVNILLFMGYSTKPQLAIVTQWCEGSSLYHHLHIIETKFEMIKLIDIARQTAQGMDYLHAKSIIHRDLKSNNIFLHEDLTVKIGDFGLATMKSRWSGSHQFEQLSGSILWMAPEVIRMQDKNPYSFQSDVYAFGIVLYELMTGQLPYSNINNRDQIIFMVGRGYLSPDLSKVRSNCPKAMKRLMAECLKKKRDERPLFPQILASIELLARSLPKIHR
- Assay Explanation: RAF kinase biochemical assay, BRAF V600M
- Cond: Table 3; ATP 100 μM
pIC50: −log10 of the molar value.

{"Smiles Data": "O=C(c1c(F)ccc(NS(=O)(=O)N2CC[C@@H](F)C2)c1F)c1c[nH]c2ncc(-c3cnc(C4CC4)nc3)cc12", "Measurement Target": "BRAF_V600M (Homo sapiens, UniProt P15056, V600M)", "pIC50": 8.01}

###

Listed next: entries and their corresponding pEC50.
- Test system: pMEK in IPC-298 cells (NRAS-Q61L)
- Assay Explanation: Phospho-MEK AlphaScreen assay, pMEK activation in IPC-298
- Assay type: cell-based
- Cond: Homo sapiens
pEC50: −log10 of the molar value.

{"Molecule": "O=C(c1c(F)ccc(NS(=O)(=O)N2CC[C@@H](F)C2)c1F)c1c[nH]c2ncc(-c3cnc(C4CC4)nc3)cc12", "pEC50": 5.00}
{"Molecule": "CCCS(=O)(=O)Nc1ccc(F)c(C(=O)c2c[nH]c3ncc(-c4ccc(Cl)cc4)cc23)c1F [Vemurafenib, vemurafenib, reference compound]", "pEC50": 6.00}

###

- Measurement Target: CRAF (Homo sapiens, UniProt P04049, Y340D/Y341D)
- Construct: GST (N); purchased Millipore 14-352; host or cells: insect cells
- Sequence (P04049 307-648 Y340D/Y341D): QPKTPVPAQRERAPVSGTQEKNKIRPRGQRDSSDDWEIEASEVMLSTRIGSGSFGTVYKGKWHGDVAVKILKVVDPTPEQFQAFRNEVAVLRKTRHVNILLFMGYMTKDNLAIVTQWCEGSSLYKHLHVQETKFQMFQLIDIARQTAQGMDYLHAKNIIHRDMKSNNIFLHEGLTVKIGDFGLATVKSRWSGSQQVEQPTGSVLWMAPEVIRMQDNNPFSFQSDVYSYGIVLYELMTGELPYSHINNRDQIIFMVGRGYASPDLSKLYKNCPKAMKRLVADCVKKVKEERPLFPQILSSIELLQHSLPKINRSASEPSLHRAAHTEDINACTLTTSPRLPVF
- Assay Explanation: In vitro RAF kinase biochemical assay, activated CRAF
- Cond: Table 3; ATP 100 μM
pIC50: −log10 of the molar value.

{"Smiles Data": "O=C(c1c(F)ccc(NS(=O)(=O)N2CC[C@@H](F)C2)c1F)c1c[nH]c2ncc(-c3cnc(C4CC4)nc3)cc12", "pIC50": 7.65}

###

- System: pERK in HCT116 cells (KRAS^G13D)
- Assay Explanation: Phospho-ERK AlphaScreen assay, pERK activation in HCT116
- Type: cell-based
- Cond: Homo sapiens, HCT-116; read-out: pERK activation Mean EC50, HCT116
pEC50: −log10 of the molar value.
Listed next: entries and their corresponding pEC50.

{"Compound": "CCCS(=O)(=O)Nc1ccc(F)c(C(=O)c2c[nH]c3ncc(-c4ccc(Cl)cc4)cc23)c1F [Vemurafenib, vemurafenib, reference compound]", "pEC50": 6.54}
{"Compound": "O=C(c1c(F)ccc(NS(=O)(=O)N2CC[C@@H](F)C2)c1F)c1c[nH]c2ncc(-c3cnc(C4CC4)nc3)cc12", "pEC50": 5.00}

###

- Measurement Target: BRAF_V600A (Homo sapiens, UniProt P15056, V600A)
- Sequence (P15056 432-726 V600A): as the sequence (P15056 432-726 V600M) above, with M169A counted along it
- Assay Explanation: RAF kinase biochemical assay, BRAF V600A
- Cond: Table 3; ATP 100 μM
pIC50: −log10 of the molar value.

{"Molecule": "O=C(c1c(F)ccc(NS(=O)(=O)N2CC[C@@H](F)C2)c1F)c1c[nH]c2ncc(-c3cnc(C4CC4)nc3)cc12 [Formula I]", "pIC50": 7.85}

###

- Measurement Target: BRAF_V600R (Homo sapiens, UniProt P15056, V600R)
- Sequence (P15056 448-723 V600R): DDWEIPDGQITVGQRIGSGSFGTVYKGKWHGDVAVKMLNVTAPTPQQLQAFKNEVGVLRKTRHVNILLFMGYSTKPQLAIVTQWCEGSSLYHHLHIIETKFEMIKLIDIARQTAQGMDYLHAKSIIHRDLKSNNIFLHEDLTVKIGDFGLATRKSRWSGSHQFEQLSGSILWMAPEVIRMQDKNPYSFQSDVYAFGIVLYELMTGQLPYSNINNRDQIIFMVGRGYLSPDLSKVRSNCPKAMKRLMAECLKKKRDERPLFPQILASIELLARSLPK
- Assay Explanation: RAF kinase biochemical assay, BRAF V600R
- Cond: Table 3; ATP 100 μM

{"Smiles Data": "O=C(c1c(F)ccc(NS(=O)(=O)N2CC[C@@H](F)C2)c1F)c1c[nH]c2ncc(-c3cnc(C4CC4)nc3)cc12", "Uom": "nM", "IC50": 3.5}

###

- System: pERK in HCT116 cells (KRAS^G13D)
- Assay Explanation: Phospho-ERK AlphaScreen assay, pERK activation in HCT116
- Assay type: cell-based
- Cond: Homo sapiens, HCT-116, read-out: pERK activation EC50 HCT116
pEC50: −log10 of the molar value.

{"Smiles Data": "CNC(=O)c1cc(Oc2ccc(NC(=O)Nc3ccc(Cl)c(C(F)(F)F)c3)cc2)ccn1", "Measurement Target": "pERK in HCT116 cells (KRAS^G13D)", "pEC50": 7.07}
{"Smiles Data": "CC(C)(C)c1nc(-c2cccc(NS(=O)(=O)c3c(F)cccc3F)c2F)c(-c2ccnc(N)n2)s1", "Measurement Target": "pERK in HCT116 cells (KRAS^G13D)", "pEC50": 8.52}

###

Listed next: entries and their corresponding pEC50.
- Tested on: pERK in IPC-298 cells (NRAS^Q61L)
- Assay Explanation: Phospho-ERK AlphaScreen assay, pERK activation in IPC-298
- Assay type: cell-based, human
- Cond: Homo sapiens; IPC-298, NRAS^Q61L; concentration increasing pERK to 50% compared to positive control 10 μM PLX4720; read-out: pERK activation EC50 IPC298
pEC50: −log10 of the molar value.

{"Compound": "O=C(c1c(F)ccc(NS(=O)(=O)N2CC[C@@H](F)C2)c1F)c1c[nH]c2ncc(-c3cnc(C4CC4)nc3)cc12 [Formula I]", "Measurement Target": "pERK in IPC-298 cells (NRAS^Q61L)", "pEC50": "< 3.70"}
{"Compound": "CCCS(=O)(=O)Nc1ccc(F)c(C(=O)c2c[nH]c3ncc(-c4ccc(Cl)cc4)cc23)c1F [Vemurafenib, vemurafenib, reference compound]", "Measurement Target": "pERK in IPC-298 cells (NRAS^Q61L)", "pEC50": 6.27}
{"Compound": "CCN(C)S(=O)(=O)Nc1ccc(F)c(C(=O)c2c[nH]c3ncc(-c4cnc(C5CC5)nc4)cc23)c1F [Formula II]", "Measurement Target": "pERK in IPC-298 cells (NRAS^Q61L)", "pEC50": "< 3.70"}

###

- Measurement Target: BRAF_V600K (Homo sapiens, UniProt P15056, V600K)
- Sequence (P15056 448-723 V600K): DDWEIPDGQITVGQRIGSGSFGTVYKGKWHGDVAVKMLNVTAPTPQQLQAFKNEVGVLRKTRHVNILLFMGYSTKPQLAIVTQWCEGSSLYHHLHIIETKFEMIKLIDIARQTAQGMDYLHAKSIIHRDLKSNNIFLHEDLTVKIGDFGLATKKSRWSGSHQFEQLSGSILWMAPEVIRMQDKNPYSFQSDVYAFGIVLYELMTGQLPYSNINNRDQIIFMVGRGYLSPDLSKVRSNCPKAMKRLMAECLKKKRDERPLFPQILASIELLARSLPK
- Assay Explanation: RAF kinase biochemical assay, BRAF V600K
- Cond: Table 3; ATP 100 μM

{"Smiles Data": "O=C(c1c(F)ccc(NS(=O)(=O)N2CC[C@@H](F)C2)c1F)c1c[nH]c2ncc(-c3cnc(C4CC4)nc3)cc12", "IC50": "3.9 nM"}
